System: CAL-120
assay.text: normalised response (% of control), CellTiter-Glo; higher = more viable cells (100 = DMSO, 0 = benzethonium chloride kill control)
experimental.setup: incubation time: 72 h
assay.readout: normalised response (%)
One number for each entry, in %.

Please review the entries below; each comes with its answer.
Log: CAL-120, compound COc1ncc(-c2ccc3nccc(-c4ccnnc4)c3c2)cc1NS(=O)(=O)c1ccc(F)cc1F (10 nM) , normalised response = 75.7

The compound Cn1cnc2c(F)c(Nc3ccc(Br)cc3F)c(C(=O)NOCCO)cc21 [MEK-162] (10 nM) on CAL-120: normalised response was 97.9

Attention now turns to another entry.
Bench note, CAL-120: entry O=c1[nH]cc(F)c(=O)[nH]1 [Fluorouracil] (100 nM) , its normalised response = 107

###

Tested on: MFM-223
assay.text: normalised response (% of control), CellTox Green; higher = less cell death (100 = DMSO, 0 = benzethonium chloride kill control)
experimental.setup: incubation time: 72 h
assay.readout: normalised response (%)
Answers are plain numbers, in %.

# example entries with known answers
The compound listed as O=C(c1ccc(OCCN2CCCCC2)cc1)c1c(-c2ccc(O)cc2)sc2cc(O)ccc12 [Raloxifene] (100 nM) has a reported normalised response of 91.7

Item: Cn1c(=O)c(F)c(Nc2ccc(I)cc2F)c2c(=O)n(C[C@@H](O)CO)cnc21 [TAK-733] (100 nM) | normalised response: 74.9

// normalised response value for CS(=O)(=O)OCCCCOS(C)(=O)=O [Busulfan] (1000 nM) : 102

Cn1cnc2c(F)c(Nc3ccc(Br)cc3F)c(C(=O)NOCCO)cc21 [MEK-162] (100 nM) has a reported normalised response of 91.5

Note to self: normalised response recorded for Nc1nccc(-c2c(-c3ccc(F)cc3)ncn2C2CCCCC2)n1 (100 nM) was 104

Measured normalised response of O=c1[nH]cc(F)c(=O)[nH]1 [Fluorouracil] (10000 nM) : 103

# return normalised response for each item in the list
1. CCOc1cc2ncc(C#N)c(Nc3ccc(OCc4ccccn4)c(Cl)c3)c2cc1NC(=O)/C=C/CN(C)C [Neratinib] (10 nM)
2. COc1ccc(C2=N[C@@H](c3ccc(Cl)cc3)[C@@H](c3ccc(Cl)cc3)N2C(=O)N2CCNC(=O)C2)c(OC(C)C)c1 [Nutlin-3] (100 nM)

Reply |
94.8
95.2

###

System: HCC1143
assay.text: normalised viability (% of control), CellTiter-Blue; higher = more viable cells (100 = DMSO, 0 = benzethonium chloride kill control)
experimental.setup: incubation time: 72 h
Field: normalised viability. Provide a value for each of the molecules that follow.
Give bare numbers, in %.

Use these answered entries as a reference point.
So, CC(C)C[C@H](NC(=O)[C@H](Cc1ccccc1)NC(=O)c1cnccn1)B(O)O [Bortezomib] (0.1 nM) ? Its normalised viability was 98.8

Query CN1CCN(c2ccc3nc(-c4c(N)c5c(F)cccc5[nH]c4=O)[nH]c3c2)CC1 [Dovitinib] (1 nM) yields normalised viability of 87.3

I have 5 molecules here; please give me normalised viability for each one.
1. CCCC(CCC)C(=O)O [Valproic acid] (1 nM)
2. CS(=O)(=O)OCCCCOS(C)(=O)=O [Busulfan] (10 nM)
3. O=c1[nH]c(=O)n([C@H]2C[C@H](O)[C@@H](CO)O2)cc1F [Floxuridine] (1 nM)
4. c1ccc(C2CN3CCSC3=N2)cc1 (stereo not given) [Tetramisole] (1 nM)
5. CC(C)(C)c1cc(NC(=O)Nc2ccc(-c3cn4c(n3)sc3cc(OCCN5CCOCC5)ccc34)cc2)no1 [Quizartinib] (0.1 nM)

Reply |
[99.1, 100, 98.6, 107, 99.6]
